src = ChEMBL document CHEMBL4513216

# cytotoxicity at 10 µM per entry
ASSAY_REMARKS: Toxicity liver stage against HepG2, at 10uM
Assay type: cell-based
Set-up: test concentration 10 uM, cell line HepG2-A16-CD81EGFP
CONDITION_SUMMARY: human, HepG2-A16-CD81EGFP cells; read-out: INHIBITION
The reply should contain only the number, in %.

| COMPOUND | cytotoxicity at 10 µM, % |
| --- | --- |
| O=C(N1CCCO1)[C@@]12CCO[C@@H]1CCN(Cc1ccsc1)C2 | 1.73 |
| O=C(c1ccnnc1)N1C[C@H](OCC2CC2)[C@H]2COC[C@H]21 | 0.0658 |

Query: What value of measured cytotoxicity at 10 µM is listed for CC(C)c1noc(OCc2cccc(S(=O)(=O)N(C)C)c2)n1 ?
Response: -45.9

Query: Item: CCn1cc(C(=O)NCC2(C(N)=O)CCOCC2)c2ccccc21
Response: 0.969

Query: Lookup CN(CCc1ccncc1)CC1CCCN1c1cccnn1 (centres undefined)
Response: 1.09

Query: Follow-up item: COc1ccccc1OCc1cc(C(=O)NC[C@@H]2CCCN2)n[nH]1
Response: -3.81
